Give IC50 for every item shown.
molecular target: mushroom tyrosinase (Agaricus bisporus); construct: purchased Sigma-Aldrich; experiment: Mushroom tyrosinase inhibition assay (L-tyrosine substrate); format: biochemical; details: L-tyrosine substrate; means ± SEMs of triplicate determinations
Sequence (C7FF04 1-392 limits assumed): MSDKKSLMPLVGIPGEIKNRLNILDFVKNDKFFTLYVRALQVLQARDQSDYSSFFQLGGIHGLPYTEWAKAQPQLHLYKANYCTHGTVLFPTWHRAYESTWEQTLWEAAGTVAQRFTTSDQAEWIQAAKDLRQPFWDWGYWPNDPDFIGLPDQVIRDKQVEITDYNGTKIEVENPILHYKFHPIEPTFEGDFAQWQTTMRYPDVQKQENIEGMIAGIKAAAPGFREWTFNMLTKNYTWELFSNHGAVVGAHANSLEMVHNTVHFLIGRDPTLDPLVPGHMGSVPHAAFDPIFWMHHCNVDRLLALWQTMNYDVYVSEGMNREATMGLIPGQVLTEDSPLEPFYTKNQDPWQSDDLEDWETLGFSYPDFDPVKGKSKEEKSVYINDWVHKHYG

Enquiry: What value of IC50 has been recorded for this entry: `O=C1/C(=C/c2cc(Br)c(O)c(Br)c2)SC(=S)N1c1ccccc1`
Return: 78.8 µM

Enquiry: Next up: `COc1cc(/C=C2\SC(=S)N(c3ccccc3)C2=O)ccc1O`
Return: 80 µM

Enquiry: Next up: `O=C1/C(=C/c2ccc(O)cc2O)SC(=S)N1c1ccccc1`
Return: 0.59 µM

Enquiry: Next up: `COc1ccc(/C=C2\SC(=S)N(c3ccccc3)C2=O)cc1OC`
Return: 94.3 µM

Enquiry: Next up: `O=C1/C(=C/c2ccc(O)c(Br)c2)SC(=S)N1c1ccccc1`
Return: 65.5 µM

From: paper PMC9137581
